observed.property: glass transition temperature (°C)
Numbers only; they are read as °C.

Query: // returns reported glass transition temperature for input *O[Si](*)(CCCOCCOC)CCCOCCOC (repeat unit)
Result: -55.00

Query: Requested read-out: glass transition temperature. Entry: *CCOC(=O)c1cccc2c(C(=O)O*)cccc12 (repeat unit)
Result: 78.00

Query: // returns reported glass transition temperature for input *CCOP(=O)(/N=N/c1ccc(-c2ccc(/N=N/P(=O)(O*)OCC)cc2)cc1)OCC (repeat unit)
Result: 43.00

Query: Which glass transition temperature value is on record for *Oc1ccc(Oc2ccc(S(=O)(=O)c3ccc(-c4ccc(S(=O)(=O)c5ccc(*)cc5)cc4)cc3)cc2)cc1 (repeat unit) ?
Result: 251.00

Query: Please report the recorded glass transition temperature for *Cc1cc(CNC(=O)c2cccc(C(=O)N*)c2)cc(C(C)(C)C)c1 (repeat unit) .
Result: 188.00

Query: Fill in the blank: the reported glass transition temperature of *CC(*)(C)C(=O)OC(C)C (repeat unit) [Poly(isopropyl methacrylate)] is ____.
Result: 83.92

Query: Consider the molecule *Nc1ccc(C(=O)c2ccc(Nc3ccc4c(c3)c3cc(*)ccc3n4CC(CC)CCCC)cc2)cc1 (repeat unit) and give its measured glass transition temperature.
Result: 236.1

Query: Which glass transition temperature value is on record for *CCOCCOCCOC(=O)NCCCCCCNC(=O)O* (repeat unit) ?
Result: -6.50

Query: # get_value(readout='glass transition temperature', item= */C=C/C1CC(*)C2C(=O)N(c3cccc(C)c3)C(=O)C12 (repeat unit) )
Result: 206.00

Query: Which value of glass transition temperature has been reported for *c1ccc(Oc2ccc(NC(=O)c3ccc(Oc4ccc5c(c4)C(=O)N(*)C5=O)cc3)cc2)cc1 (repeat unit) in the records?
Result: 262.00

Query: Item under review: *c1cccc(-c2nc3cc(-c4ccc5nc(-c6ccccc6)c(*)nc5c4)ccc3nc2-c2ccccc2)c1 (repeat unit) . Reported glass transition temperature?
Result: 320.00

Query: Give the measured glass transition temperature of *CC(*)(C)C(=O)OCCCCCCOc1ccc(OC(=O)c2ccc(OCCCCCC)cc2)cc1 (repeat unit) .
Result: 16.00

Query: // lookup glass transition temperature for *CCCCCCCCCn1c2ccccc2c2cc(/C=C(\C#N)C(=O)OCCCCCCOC(=O)/C(C#N)=C/c3ccc4c(c3)c3ccccc3n4*)ccc21 (repeat unit)
Result: 96.40

Query: Which measured glass transition temperature value corresponds to *C1C(=O)N(CCCOc2ccc(-c3ccc(C#N)cc3)cc2)C(=O)C1* (repeat unit) ?
Result: 130.00

Query: For the molecule shown here, *CC(*)(C)C(=O)OCc1ccc(F)cc1F (repeat unit) , give the reported glass transition temperature.
Result: 46.00

Query: Given the entry *Oc1ccc(P(=O)(c2ccccc2)c2ccc(*)cc2)cc1 (repeat unit) , report its measured glass transition temperature.
Result: 240.00

Query: # get_value(readout='glass transition temperature', item= *c1ccc(Oc2cc3ccccc3cc2Oc2ccc(N3C(=O)c4ccc(Oc5ccccc5Oc5ccc6c(c5)C(=O)N(*)C6=O)cc4C3=O)cc2)cc1 (repeat unit) )
Result: 216.00

Query: Please give the measured glass transition temperature for this molecule: *CC#CCOC(=O)CCCCCCC(=O)O* (repeat unit)
Result: -38.00

Query: So what does the record say about glass transition temperature for *CCCCCCN1C(=O)c2ccc(Oc3ccc4c(c3)C(=O)N(*)C4=O)cc2C1=O (repeat unit) ?
Result: 164.00

Query: Would you mind telling me what glass transition temperature value was observed for *c1ccc2c(c1)C(=O)N(c1cc(C(c3ccc(OC(C)=O)c(N4C(=O)c5ccc(C(*)(C(F)(F)F)C(F)(F)F)cc5C4=O)c3)(C(F)(F)F)C(F)(F)F)ccc1OC(C)=O)C2=O (repeat unit) ?
Result: 266.50

Query: State the recorded glass transition temperature for this entry: *C(=O)c1ccc2c(c1)C(=O)N(c1cccc(Cc3ccc(Cc4cccc(N5C(=O)c6ccc(*)cc6C5=O)c4)cc3)c1)C2=O (repeat unit)
Result: 240.00

Query: I am curious: what glass transition temperature value has been reported for *CC(*)c1cc(C(=O)OCCCCCC)ccc1-c1ccc(OCCCCCCCC)cc1 (repeat unit) ?
Result: 64.00

Query: Record request: glass transition temperature value, item *CC(*)C(=O)Oc1ccc([N+](=O)[O-])cc1 (repeat unit)
Result: 73.30

###

observed.property: glass transition temperature (°C)
Provide the reading as a plain figure in °C.

Query: glass transition temperature for */C=C/c1ccc(/C=C/c2ccc3c(c2)Sc2cc(*)ccc2N3c2ccc(OCCCCCCCCCCCC)cc2)cc1 (repeat unit) ?
Result: 167.00

Query: Form field: reported glass transition temperature of *C(C)C(*)C(=O)OC(C)C (repeat unit)
Result: 149.00

Query: Any idea what glass transition temperature was measured for *CC(*)(C)C(=O)OCc1ccco1 (repeat unit) ?
Result: 111.00

Query: Entry *CCSSSSCCO* (repeat unit) has what glass transition temperature?
Result: -40.00

Query: Request the reported glass transition temperature associated with *CC(*)C(=O)OCCC(C)OC (repeat unit)
Result: -56.00

Query: Sample *CC(*)C(=O)OCCN(C)C (repeat unit) — what was its glass transition temperature?
Result: -39.00

###

observed.property: glass transition temperature (°C)
Hi! Could you send only the number? It should be in °C, unit omitted.

Query: State the recorded glass transition temperature for this entry: *O/C(=C/CC)C(CC)C(*)=O (repeat unit)
Result: -15.90

Query: glass transition temperature for *c1ccc2c(c1)C(=O)N(c1ccc(Oc3ccc(S(=O)(=O)c4ccc(Oc5ccc(N6C(=O)c7ccc(C(*)(C(F)(F)F)C(F)(F)F)cc7C6=O)cc5)cc4)cc3)cc1)C2=O (repeat unit) ?
Result: 276.50

Query: Recorded glass transition temperature of *OC(=O)C(C)NC(=O)CCCCC(=O)NC(C)C(=O)OC1COC2C(*)COC12 (repeat unit) , please.
Result: 56.00

###

Could you please report measured glass transition temperature for the items listed next?
Write the value in °C as a bare number.

Query: # query: glass transition temperature of entry *Oc1ccc(CC(NC(=O)CCc2ccc(OC(=O)CCCC(*)=O)cc2)C(=O)OCCCC)cc1 (repeat unit)
Result: 56.00

Query: What value of glass transition temperature has been reported for the following compound? *CCC(C)C(C)CCNC(=O)c1cc(C(=O)N*)cc(C(C)(C)C)c1 (repeat unit)
Result: 173.00

Query: I have this compound here, *CC(O)COc1ccc(C(C)(C)C2CCC(C)(c3ccc(O*)cc3)CC2)cc1 (repeat unit) , and I need its recorded glass transition temperature.
Result: 135.00

Query: Given the compound *C(=O)c1ccc(Oc2ccc(C3(c4ccc(Oc5ccc(C(=O)c6ccc7c(c6)C(=O)N(c6ccc(Cc8ccc(N9C(=O)c%10ccc(*)cc%10C9=O)cc8)cc6)C7=O)cc5)cc4)OC(=O)c4ccccc43)cc2)cc1 (repeat unit) , what is its reported glass transition temperature?
Result: 268.00

Query: Query (compound): *Oc1ccc(S(=O)(=O)c2ccc3ccc(S(=O)(=O)c4ccc(*)cc4)cc3c2)cc1 (repeat unit) ; field requested: glass transition temperature
Result: 250.00

Query: Give the measured glass transition temperature of *c1ccc(Oc2ccc(C(C)(C)c3ccccc3)cc2)c(N2C(=O)c3ccc(-c4ccc5c(c4)C(=O)N(*)C5=O)cc3C2=O)c1 (repeat unit) .
Result: 275.00

Query: What does the data say about its glass transition temperature? Entry: *CC(*)c1cc(Br)ccc1OC (repeat unit)
Result: 86.00

Query: Reported glass transition temperature for *Oc1ccc(OC(=O)Oc2ccc(C(*)=O)cc2)cc1 (repeat unit) : what is it?
Result: 74.00

Query: What does the record list as glass transition temperature for *CC(*)(C)C(=O)OCCCCCC(=O)Oc1ccc(OC(=O)c2ccc(OCCCCC)cc2)cc1 (repeat unit) ?
Result: 50.00

Query: Which glass transition temperature value belongs to *C/C=C/C[Si](*)(c1ccccc1)c1ccccc1 (repeat unit) ?
Result: 34.90

Query: Recorded glass transition temperature of *O[Si](C)(C)CCC/N=C1C=C(O)/C(=N\CCC[Si](*)(C)C)C=C\1O (repeat unit) , please.
Result: 70.34

Query: Fill in: glass transition temperature of *C(=O)Nc1ccc(S(=O)(=O)c2ccc(NC(=O)c3ccc4c(c3)C(=O)N(c3ccc(Oc5ccc(N6C(=O)c7ccc(*)cc7C6=O)cc5)cc3)C4=O)cc2)cc1 (repeat unit) is ___
Result: 275.00

Query: Recorded glass transition temperature for *CCOCCOCCOc1ccc(C(=O)Nc2cc(NC(=O)c3ccc(O*)cc3)cc(-c3nc4ccccc4[nH]3)c2)cc1 (repeat unit) , please?
Result: 165.00

Query: For the compound *Oc1ccc(OC(=O)c2ccc(C(*)=O)cc2)cc1C1CCCCC1 (repeat unit) , what glass transition temperature is on record?
Result: 206.00

Query: Need glass transition temperature of *Oc1ccc2cc(Oc3ccc4c(=O)n5c6cc(-c7ccc8c(c7)nc7c9ccc(*)c%10cccc(c(=O)n87)c%109)ccc6nc5c5cccc3c45)ccc2c1 (repeat unit) , thanks.
Result: 413.00

Query: Entry under review: *c1cc(N2C(=O)c3ccc(Oc4cccc5c(Oc6ccc7c(c6)C(=O)N(*)C7=O)cccc45)cc3C2=O)cc(C(F)(F)F)c1 (repeat unit) . Reported glass transition temperature?
Result: 250.00

Query: Requested read-out: glass transition temperature. Entry: *CC(*)(F)C(F)(F)F (repeat unit)
Result: 49.00

Query: So what's the measured glass transition temperature for this one? *c1cccc(NC(=O)c2cccc(C(=O)Nc3cccc(-n4c(=O)c5cc6c(=O)n(*)c(=O)c6cc5c4=O)c3)c2)c1 (repeat unit)
Result: 338.00

Query: Endpoint output: glass transition temperature of */C=C/c1ccc(OC(=O)CCCCCCCCC(=O)Oc2ccc(-c3nnc(*)s3)cc2)cc1 (repeat unit) . Value?
Result: 30.00

Query: Which value of glass transition temperature has been reported for *CC(O)COC(=O)CCCCC(=O)OCC(O)COc1ccc(O*)cc1 (repeat unit) in the records?
Result: 19.00

Query: For the compound *Oc1ccc(NC(=O)c2cc(C(=O)Nc3ccc(*)cc3)cc(C(F)(F)C(F)(F)C(F)(F)C(F)(F)F)c2)cc1 (repeat unit) , what glass transition temperature is on record?
Result: 257.00

Query: Look up glass transition temperature: *CCCCCCN(CC(F)(F)C(F)(F)C(F)(F)C(F)(F)C(F)(F)C(F)(F)C(F)(F)F)C(=O)C(F)(F)C(F)(F)C(F)(F)C(=O)N(*)CC(F)(F)C(F)(F)C(F)(F)C(F)(F)C(F)(F)C(F)(F)C(F)(F)F (repeat unit)
Result: 187.50

Query: Report glass transition temperature for *Cc1ccc(CNC(=O)CCCCCCCCCCC(=O)N*)cc1 (repeat unit) please.
Result: 105.00
